Each record here notes measured Herbicidal action against POLCO.
# Tested on: POLCO
# test: Post-emergence herbicidal action
# Format: in vivo
# conditionParameters: Table 5, post-emergence (PO), 320 g/ha, assessed after about 3 weeks

[
  {
    "smilesStructure": "Nc1cc(-c2ccc3sccc3c2)nc(C(=O)OCc2cccc(Cl)c2)c1Cl",
    "unitsOfMeasure": "%",
    "Herbicidal action against POLCO": 40
  },
  {
    "smilesStructure": "Nc1cc(-c2ccc3ccsc3c2)nc(C(=O)OCc2ccc(Cl)cc2)c1Cl",
    "unitsOfMeasure": "%",
    "Herbicidal action against POLCO": 100
  },
  {
    "smilesStructure": "Nc1c(F)c(-c2ccc3sccc3c2)nc(C(=O)OCc2ccc(Cl)cc2)c1Cl",
    "unitsOfMeasure": "%",
    "Herbicidal action against POLCO": 100
  },
  {
    "smilesStructure": "Nc1cc(-c2ccc3occc3c2)nc(C(=O)OCc2ccc(F)cc2)c1Cl",
    "unitsOfMeasure": "%",
    "Herbicidal action against POLCO": 30
  },
  {
    "smilesStructure": "Nc1cc(-c2ccc3ccsc3c2)nc(C(=O)OCc2ccccc2F)c1Cl",
    "unitsOfMeasure": "%",
    "Herbicidal action against POLCO": 100
  },
  {
    "smilesStructure": "Nc1c(F)c(-c2ccc3ccoc3c2)nc(C(=O)OCc2ccc(F)cc2)c1Cl",
    "unitsOfMeasure": "%",
    "Herbicidal action against POLCO": 80
  },
  {
    "smilesStructure": "Nc1c(F)c(-c2ccc3sccc3c2)nc(C(=O)OCc2ccc(F)cc2)c1Cl",
    "unitsOfMeasure": "%",
    "Herbicidal action against POLCO": 90
  },
  {
    "smilesStructure": "COc1ccc(COC(=O)c2nc(-c3ccc4ccoc4c3)c(F)c(N)c2Cl)c(OC)c1",
    "unitsOfMeasure": "%",
    "Herbicidal action against POLCO": 80
  }
]
